Where do the numbers come from? From patent EP1724347A2.

Target: GST-KIX
Sequence (P45481 586-665): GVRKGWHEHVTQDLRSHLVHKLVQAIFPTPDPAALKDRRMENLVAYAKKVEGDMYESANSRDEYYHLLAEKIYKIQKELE
Assay: fluorescence polarization
Where no end group is shown, it is not given here.
readout: log10 of Kd (log10 of the value in nM)
Annotation: log10 of Kd, nM basis.

Below, each entry is followed by its recorded log10 of Kd result.
q: What log10 of Kd value was documented for this binder, GASDMTYWGDDAPVRRLSFFYILLDLYLDAPC(acetamidofluorescein) (designed binder, also: phosphorylated, site not given here) [phosphorylated PPKID1] ?
a: 1.49

q: What log10 of Kd value was documented for this binder, GMSRVTPGGDDAPVRRLSFFYILRDLYLDAPC(acetamidofluorescein) (designed binder, also: phosphorylated, site not given here) [phosphorylated PPKID2] ?
a: 2.45

q: What log10 of Kd value was documented for this binder, GMSRVTPGGDDAPVRRLSFFYILRDLYLDAPC(acetamidofluorescein) (designed binder) [unphosphorylated PPKID2] ?
a: 3.88

New cases:
q: What log10 of Kd value was documented for this binder, GASPHTSSGDDAPVRRLSFFDILLDLYLDAPC(acetamidofluorescein) (designed binder, also: phosphorylated, site not given here) [phosphorylated PPKID3] ?
a: 1.86

q: What log10 of Kd value was documented for this binder, GASPHTSSGDDAPVRRLSFFDILLDLYLDAPC(acetamidofluorescein) (designed binder) [unphosphorylated PPKID3] ?
a: 2.83
